Values compiled from patent US20230265183A1.

# SYSTEM TESTED: T1, His-tagged human NECTIN4 (human, UniProt Q96NY8 32-349)
# T1 construct: Antigen of the BIAcore assay; also called antigen; recombinant NECTIN4 protein; not shown: His tag
# T1 sequence: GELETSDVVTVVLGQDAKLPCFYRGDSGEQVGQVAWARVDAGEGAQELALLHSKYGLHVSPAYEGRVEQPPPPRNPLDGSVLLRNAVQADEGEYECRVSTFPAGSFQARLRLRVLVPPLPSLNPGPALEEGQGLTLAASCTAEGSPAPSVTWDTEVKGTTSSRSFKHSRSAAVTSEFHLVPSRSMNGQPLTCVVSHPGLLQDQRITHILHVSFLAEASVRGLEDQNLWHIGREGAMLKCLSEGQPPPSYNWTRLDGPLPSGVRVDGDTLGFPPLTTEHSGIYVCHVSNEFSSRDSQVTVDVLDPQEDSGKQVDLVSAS
# ASSAY: SPR (BIAcore S200), antigen on CAP chip, antibody as analyte, 1:1 fit
OBSERVATION TYPE: Kd (nM)
Write down the numeric answer in nM and omit the unit.

Using the record for Enfortumab (antibody, human IgG1, kappa, V domains shown, also called control antibody Enfortumab) VH: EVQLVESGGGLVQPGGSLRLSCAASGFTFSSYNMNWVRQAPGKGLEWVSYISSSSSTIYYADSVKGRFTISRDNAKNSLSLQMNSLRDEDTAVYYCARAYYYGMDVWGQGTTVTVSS VL: DIQMTQSPSSVSASVGDRVTITCRASQGISGWLAWYQQKPGKAPKFLIYAASTLQSGVPSRFSGSGSGTDFTLTISSLQPEDFATYYCQQANSFPPTFGGGTKVEIKR , report its Kd.
4.94

Tell me the measured Kd of 42D20 hz63 (antibody, V domains shown, Humanized) VH: QVQLQESGPGLVKPSETLSLTCTVSGFSLIDYGVSWIRQPPGKGLEWIGVIWGGGKIYYNSVLKSRVTISKDNSKSQVSLKLSSVTAADTAVYYCAKQGGLLFYAMDYWGQGTLVTVSS VL: DIVMTQSPDSLAVSLGERATINCKSSQSLLNTYSQKNYLAWYQQKPGQSPKLLIYFASTRESGVPDRFSGSGSETDFTLTISSLQAEDLAVYFCQQHYNTPFTFGAGTKLELKR , please.
1.8

Returns the measured Kd for the input binder. Input: 42D20 hz10 (antibody, V domains shown, Humanized) VH: QVQLQESGPGLVKPSETLSLTCTVSGFSLIDYGVSWIRQPPGKGLEWIGVIWGDGKIYYNSVLKSRVTISKDNSKSQVSLKLSSVTAADTAVYYCAKQGGLLFYAMDYWGQGTLVTVSS VL: DIVMTQSPDSLAVSLGERATINCKSSQSLLNSYSQKNYLAWYQQKPGQPPKLLIYFASTRESGVPDRFSGSGSGTDFTLTISSLQAEDVAVYYCQQHYNTPFTFGAGTKLELKR
1.14

// returns reported Kd for input chimeric antibody 42D20 xiIgG (antibody, V domains shown) VH: QVQLKESGPGLVAPSQSLSISCTVSGFSLIDYGVSWIRQPPGKGLEWLGVIWGDGKIYYNSVLKSRLSISKDNSKSQVFLKMNSLQTDDTAMYYCAKQGGLLFYAMDYWGQGTSVTVSS VL: DIVMTQSPSSLAMSVGQRVTMNCKSSQSLLNSYSQKNYLAWYQQKPGQSPKLLIYFASTRESGVPDRFIGSGSETDFTLTISSVQAEDLADYFCQQHYNTPFTFGSGTKLEIKR
1.01
